// data source = PubChem BioAssay AID504333

- TGT: Bromodomain adjacent to zinc finger domain protein 2B (Homo sapiens) (UniProt Q9UIF8)
- Sequence (Q9UIF8 whole entry, looked up, the tested form may be a part): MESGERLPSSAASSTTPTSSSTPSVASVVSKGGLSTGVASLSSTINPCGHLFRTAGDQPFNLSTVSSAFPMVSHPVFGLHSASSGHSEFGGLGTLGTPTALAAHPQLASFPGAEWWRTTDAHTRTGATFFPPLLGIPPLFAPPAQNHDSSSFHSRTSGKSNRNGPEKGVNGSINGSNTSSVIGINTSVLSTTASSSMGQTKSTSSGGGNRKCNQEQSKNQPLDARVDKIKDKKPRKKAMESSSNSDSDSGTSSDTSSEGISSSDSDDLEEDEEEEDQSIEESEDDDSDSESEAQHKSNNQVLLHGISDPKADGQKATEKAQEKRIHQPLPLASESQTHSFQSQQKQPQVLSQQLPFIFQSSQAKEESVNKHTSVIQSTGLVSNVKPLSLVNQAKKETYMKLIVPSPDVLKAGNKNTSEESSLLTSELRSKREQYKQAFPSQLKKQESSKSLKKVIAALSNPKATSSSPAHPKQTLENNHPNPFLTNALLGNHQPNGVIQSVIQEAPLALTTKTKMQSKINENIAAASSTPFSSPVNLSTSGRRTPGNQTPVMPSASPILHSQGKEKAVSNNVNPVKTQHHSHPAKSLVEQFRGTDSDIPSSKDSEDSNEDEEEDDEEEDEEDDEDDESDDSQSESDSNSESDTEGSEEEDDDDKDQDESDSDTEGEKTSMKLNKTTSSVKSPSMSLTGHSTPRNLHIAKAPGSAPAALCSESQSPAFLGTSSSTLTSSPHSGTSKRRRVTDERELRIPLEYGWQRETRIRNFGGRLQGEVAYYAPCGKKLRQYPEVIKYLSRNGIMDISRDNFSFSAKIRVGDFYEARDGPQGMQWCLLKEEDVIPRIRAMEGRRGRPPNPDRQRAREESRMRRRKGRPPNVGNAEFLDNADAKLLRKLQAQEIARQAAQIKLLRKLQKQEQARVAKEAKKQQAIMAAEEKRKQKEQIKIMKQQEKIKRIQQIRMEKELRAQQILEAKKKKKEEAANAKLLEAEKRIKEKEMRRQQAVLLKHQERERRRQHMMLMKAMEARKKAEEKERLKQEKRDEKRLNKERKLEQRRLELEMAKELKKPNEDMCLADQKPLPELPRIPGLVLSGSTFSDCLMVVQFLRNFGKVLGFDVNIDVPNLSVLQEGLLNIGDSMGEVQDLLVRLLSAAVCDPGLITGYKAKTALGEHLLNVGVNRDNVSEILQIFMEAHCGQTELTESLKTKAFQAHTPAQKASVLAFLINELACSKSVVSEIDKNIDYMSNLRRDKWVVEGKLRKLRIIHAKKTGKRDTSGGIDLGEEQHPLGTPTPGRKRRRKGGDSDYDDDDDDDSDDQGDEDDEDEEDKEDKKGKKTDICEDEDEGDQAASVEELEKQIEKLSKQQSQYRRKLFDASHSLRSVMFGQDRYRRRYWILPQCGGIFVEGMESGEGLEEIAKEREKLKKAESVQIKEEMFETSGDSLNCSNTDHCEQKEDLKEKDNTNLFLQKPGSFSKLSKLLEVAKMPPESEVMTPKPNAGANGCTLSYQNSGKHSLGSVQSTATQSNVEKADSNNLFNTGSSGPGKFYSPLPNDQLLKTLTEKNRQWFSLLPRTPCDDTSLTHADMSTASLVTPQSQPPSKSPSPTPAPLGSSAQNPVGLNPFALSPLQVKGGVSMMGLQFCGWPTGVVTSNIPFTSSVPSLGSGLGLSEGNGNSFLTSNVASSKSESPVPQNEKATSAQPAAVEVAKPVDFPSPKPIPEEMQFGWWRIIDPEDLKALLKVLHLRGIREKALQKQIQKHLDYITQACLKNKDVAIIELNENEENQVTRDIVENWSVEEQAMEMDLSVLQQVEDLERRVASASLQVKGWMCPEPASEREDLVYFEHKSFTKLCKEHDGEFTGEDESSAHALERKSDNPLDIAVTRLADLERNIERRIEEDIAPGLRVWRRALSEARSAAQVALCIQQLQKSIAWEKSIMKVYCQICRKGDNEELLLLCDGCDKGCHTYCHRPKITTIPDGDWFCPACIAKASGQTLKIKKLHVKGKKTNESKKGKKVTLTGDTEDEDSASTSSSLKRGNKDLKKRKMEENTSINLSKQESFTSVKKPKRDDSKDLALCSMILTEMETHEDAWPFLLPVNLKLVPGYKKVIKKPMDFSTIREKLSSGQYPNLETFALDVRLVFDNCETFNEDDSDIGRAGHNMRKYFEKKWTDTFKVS
- PROTOCOL DETAILS: qHTS Assay for Inhibitors of BAZ2B; also: nearly all actives have a fitted effect of over 60% in size
- PROTOCOL CONDITIONS: AlphaScreen BAZ2B-H3K14Ac peptide displacement; series mostly up to 114 µM
Hit rate of the full screen: of about 360,000 compounds, about 16,000 (4.4%) were called active. Another 9% or so got no clear call; they are omitted. Calls follow the shape of the dose curve; as a rule, active = well fitted inhibition curve with a large enough effect; inconclusive = small, poorly fitted or top-dose-only effect; inactive = no such curve, though single readings can be large or run the other way. Shown is part of a subset that was picked to be rich in actives.
Form entry, call: pick from t for active, f for inactive

Study these solved cases before continuing.
>>> category_label("CSc1ccc(/C=N/N2CCN(Cc3ccccc3Cl)CC2)cc1")
"t"
>>> category_label("CCc1ccc(S(=O)(=O)n2ccnc2)cc1")
"f"
>>> category_label("COc1ccc(OCC(=O)Nc2cccc(C(=O)OCc3cc(=O)n4nc(C)sc4n3)c2)cc1")
"f"
>>> category_label("Cn1c(=O)n(Cc2c(F)cccc2Cl)c(=O)c2c1nc1n2CCN1c1ccc(F)cc1")
"f"
>>> category_label("CSc1ccc(/C=N/NC(=O)c2cccc(Cl)c2)cc1")
"f"
>>> category_label("CCOc1ccc(CNC(=O)c2ccc(CS(=O)c3ccccc3)o2)cc1 (stereo unspecified)")
"f"
>>> category_label("O=C(COc1ccc(Cl)cc1Cl)N/N=C/c1ccccn1")
"f"
>>> category_label("CCN1CCN(C(=O)CSc2ccc(C)cc2)CC1")
"f"

query: For Cc1ccc(C)c(Cn2c(CCCNC(=O)C3CCCCC3)nc3ccccc32)c1 , what call appears in the results of this test?
result: f

query: For CCOc1ccc(-n2c(O)c(/C=N/Nc3nnc(C)c(=O)[nH]3)c3ccccc3c2=O)cc1 , what call appears in the results of this test?
result: t

query: For CCOc1ccc(NC(=O)c2c(NCc3cccc(OC)c3OC)sc3c2CCC3)cc1 , what call appears in the results of this test?
result: f

query: For COc1ccccc1/C=N/N1CCN(Cc2ccccc2Cl)CC1 , what call appears in the results of this test?
result: t

query: For O=C(CN1C(=O)CCC1=O)Nc1ccc(S(=O)(=O)N2CCOCC2)cc1 , what call appears in the results of this test?
result: f

query: For COc1ccc(CCNc2ncnc3onc(-c4ccc(Cl)cc4)c23)c(OC)c1 , what call appears in the results of this test?
result: f

query: For Cc1ccc(CN2COc3cc(C)c4c(oc(=O)c5ccccc54)c3C2)cc1 , what call appears in the results of this test?
result: f

query: For Cc1ccc(-n2c(=O)c3cccnc3n2CC(=O)Nc2ccccc2C(F)(F)F)cc1C , what call appears in the results of this test?
result: f

query: For O=S1(=O)CCN(Cc2ccccc2Cl)CC1 , what call appears in the results of this test?
result: f

query: For CCOc1ccc(-n2c(O)c(/C=N/c3ccnn3Cc3ccncc3)c3ccccc3c2=O)cc1 , what call appears in the results of this test?
result: f

query: For COc1cc(Cl)c(S(=O)(=O)N2CCN(Cc3ccc4c(c3)OCO4)CC2)cc1Cl , what call appears in the results of this test?
result: f

query: For CCOCCCn1c(SCC(=O)Nc2ccc(CC)cc2)nc2ccccc2c1=O , what call appears in the results of this test?
result: f

query: For CCN1CCC2(CC1)N=C(c1ccc(F)cc1)C(=S)N2C(=O)c1ccc(C)cc1 , what call appears in the results of this test?
result: t
